Test system: Plasmodium berghei
Assay: Screen against P. berghei liver stage (PbLuc), transformed with Luciferase, at 10uM
Type: functional, HepG2
Conditions: tested at 10 uM
Hit rate of the full screen: of about 69,000 compounds, about 8,600 (12%) showed an effect of 50% or more. Many of the other results were omitted from the sample, so strong results are more common in it than they were.
# INHIBITION per entry

[
  {
    "molecule": "CCN1CCN(C2CCN(Cc3nc(-c4ccoc4)no3)CC2)C1=O",
    "tested_system": "Plasmodium berghei",
    "unit_label": "%",
    "INHIBITION": 26.3
  },
  {
    "molecule": "O=C1NCCN1C1CCN(Cc2nc(-c3ccoc3)no2)CC1",
    "tested_system": "Plasmodium berghei",
    "unit_label": "%",
    "INHIBITION": 17
  },
  {
    "molecule": "CNC(=O)C1(CCCc2cnccn2)CCN1Cc1ccc(C)cc1 (centres undefined)",
    "tested_system": "Plasmodium berghei",
    "unit_label": "%",
    "INHIBITION": 24.585
  },
  {
    "molecule": "O=C(C1SCCc2ccccc21)N1CCC(O)CC1 (centres undefined)",
    "tested_system": "Plasmodium berghei",
    "unit_label": "%",
    "INHIBITION": 50.8
  },
  {
    "molecule": "Cc1cc(NCCN)nc(-c2ccccc2O)n1",
    "tested_system": "Plasmodium berghei",
    "unit_label": "%",
    "INHIBITION": 17.7
  },
  {
    "molecule": "NC(=O)C1(Cc2ccc(-c3ccccc3)cc2)CCCNC1 (centres undefined)",
    "tested_system": "Plasmodium berghei",
    "unit_label": "%",
    "INHIBITION": -0.232
  },
  {
    "molecule": "O=C(O)c1cc(S(=O)(=O)Nc2cccc3c2OCCO3)ccc1F",
    "tested_system": "Plasmodium berghei",
    "unit_label": "%",
    "INHIBITION": 45.7
  },
  {
    "molecule": "CS(=O)(=O)N1CCN(C(=O)c2cncs2)CC(C(N)=O)C1 (centres undefined)",
    "tested_system": "Plasmodium berghei",
    "unit_label": "%",
    "INHIBITION": -0.8525
  },
  {
    "molecule": "COc1ccc(CC(=O)N2C[C@@H]3COC[C@]3(CN(C)C)C2)cc1",
    "tested_system": "Plasmodium berghei",
    "unit_label": "%",
    "INHIBITION": 35.3
  },
  {
    "molecule": "Cc1ccccc1NS(=O)(=O)c1cc2c(c(C(=O)O)c1)OCCO2",
    "tested_system": "Plasmodium berghei",
    "unit_label": "%",
    "INHIBITION": 35.3
  },
  {
    "molecule": "Cc1ccccc1C(=O)NCc1ccnc(N(C)C)c1",
    "tested_system": "Plasmodium berghei",
    "unit_label": "%",
    "INHIBITION": 24
  },
  {
    "molecule": "CS(=O)(=O)NCc1nnc2n1CCN(Cc1ccccn1)C2",
    "tested_system": "Plasmodium berghei",
    "unit_label": "%",
    "INHIBITION": 36.9
  },
  {
    "molecule": "CCSC(C)C(=O)N1CCC(c2nn(C)c(=O)n2-c2ccccc2)CC1 (centres undefined)",
    "tested_system": "Plasmodium berghei",
    "unit_label": "%",
    "INHIBITION": 63.7
  },
  {
    "molecule": "O=C1NCCN1C1CCN(Cc2nc(-c3ccc(F)cc3)no2)CC1",
    "tested_system": "Plasmodium berghei",
    "unit_label": "%",
    "INHIBITION": 93.6
  },
  {
    "molecule": "CC(=O)N1CCN(C(=O)C2SCCc3sccc32)CC1 (centres undefined)",
    "tested_system": "Plasmodium berghei",
    "unit_label": "%",
    "INHIBITION": 8.47
  },
  {
    "molecule": "CCOC1COC2(CCN(CC3CC3)CC2)C1 (centres undefined)",
    "tested_system": "Plasmodium berghei",
    "unit_label": "%",
    "INHIBITION": 26.7
  },
  {
    "molecule": "COc1cccc(-n2cc3[nH]c(=O)[nH]n3c2=O)c1",
    "tested_system": "Plasmodium berghei",
    "unit_label": "%",
    "INHIBITION": 3.68
  },
  {
    "molecule": "O=C1CCCN1CCCC(=O)N1CCC2(CC1)[C@H](O)C[C@@H]2O",
    "tested_system": "Plasmodium berghei",
    "unit_label": "%",
    "INHIBITION": 9.56
  },
  {
    "molecule": "Cc1noc(C2(C)CCCN(C(=O)c3cccnc3)C2)n1 (centres undefined)",
    "tested_system": "Plasmodium berghei",
    "unit_label": "%",
    "INHIBITION": 25.6
  },
  {
    "molecule": "CC(=O)N1CCC(c2nn(C)c(=O)n2-c2ccccc2)CC1",
    "tested_system": "Plasmodium berghei",
    "unit_label": "%",
    "INHIBITION": 35.2
  },
  {
    "molecule": "COCC(=O)N1CCCC1c1nc(C)c2c(n1)N(CC(C)C)C(=O)CC2 (centres undefined)",
    "tested_system": "Plasmodium berghei",
    "unit_label": "%",
    "INHIBITION": -16.9
  },
  {
    "molecule": "Cn1ccnc1COc1ccc(CN2CCC(C(N)=O)CC2)cc1",
    "tested_system": "Plasmodium berghei",
    "unit_label": "%",
    "INHIBITION": -14.7
  },
  {
    "molecule": "CS(=O)(=O)N1C[C@H]2CC[C@@H](C1)N(CCC(=O)NCc1ccco1)C2",
    "tested_system": "Plasmodium berghei",
    "unit_label": "%",
    "INHIBITION": 13.2
  },
  {
    "molecule": "CC(=O)Nc1cnc(-n2ccnc2)nc1",
    "tested_system": "Plasmodium berghei",
    "unit_label": "%",
    "INHIBITION": 13.8
  },
  {
    "molecule": "CN1CCN(C2CCN(Cc3nc(-c4ccoc4)no3)CC2)C1=O",
    "tested_system": "Plasmodium berghei",
    "unit_label": "%",
    "INHIBITION": 59.4
  },
  {
    "molecule": "CNC(=O)CN1CCC(CN(C)CCSc2ccccc2)CC1",
    "tested_system": "Plasmodium berghei",
    "unit_label": "%",
    "INHIBITION": -70.7
  },
  {
    "molecule": "Cc1cc(C)c(S(=O)(=O)Nc2cccc3c2OCCO3)cc1C(=O)O",
    "tested_system": "Plasmodium berghei",
    "unit_label": "%",
    "INHIBITION": 50
  },
  {
    "molecule": "CCn1c(-c2ccccc2)nn(CC(=O)NCCc2ccc(C)o2)c1=O",
    "tested_system": "Plasmodium berghei",
    "unit_label": "%",
    "INHIBITION": -19.1
  },
  {
    "molecule": "CC(=O)N(C)CC(=O)Nc1cnc(-n2ccnc2)nc1",
    "tested_system": "Plasmodium berghei",
    "unit_label": "%",
    "INHIBITION": 41.2
  },
  {
    "molecule": "O=C(NCc1cn2c(n1)CN(Cc1cccnc1)CC2)C1CCC1",
    "tested_system": "Plasmodium berghei",
    "unit_label": "%",
    "INHIBITION": 26.3
  },
  {
    "molecule": "CN(C)C1CCN(C(=O)C2SCCc3ccccc32)CC1 (centres undefined)",
    "tested_system": "Plasmodium berghei",
    "unit_label": "%",
    "INHIBITION": 19.2
  },
  {
    "molecule": "Cn1c(CN2CCOCC2)cc(=O)c(O)c1CN1CCCCC1",
    "tested_system": "Plasmodium berghei",
    "unit_label": "%",
    "INHIBITION": 30.2
  },
  {
    "molecule": "O=C(C1SCCc2sccc21)N1CCC(O)CC1 (centres undefined)",
    "tested_system": "Plasmodium berghei",
    "unit_label": "%",
    "INHIBITION": 20.1
  },
  {
    "molecule": "O=C(O)C1(Cc2ccc(-c3cccs3)cc2)CCNC1 (centres undefined)",
    "tested_system": "Plasmodium berghei",
    "unit_label": "%",
    "INHIBITION": 35.55
  },
  {
    "molecule": "Cn1ccnc1S(=O)(=O)C(C(=O)N1CCCCC1)c1ccccc1 (centres undefined)",
    "tested_system": "Plasmodium berghei",
    "unit_label": "%",
    "INHIBITION": 28.1
  },
  {
    "molecule": "O=C(N1CCCC1)C1(Cc2ccc(-c3cccs3)cc2)CCNC1 (centres undefined)",
    "tested_system": "Plasmodium berghei",
    "unit_label": "%",
    "INHIBITION": 50.9
  },
  {
    "molecule": "CC(C)c1nnc2n1CCN(c1nn3cc(C(C)(C)C)nc3s1)C2",
    "tested_system": "Plasmodium berghei",
    "unit_label": "%",
    "INHIBITION": -34.6
  },
  {
    "molecule": "O=C(O)c1cc(S(=O)(=O)Nc2cccc3c2OCCO3)c(Cl)cc1F",
    "tested_system": "Plasmodium berghei",
    "unit_label": "%",
    "INHIBITION": 81.7
  },
  {
    "molecule": "Cc1cccnc1NC(=O)c1ccc(F)c(S(=O)(=O)N2CCC2)c1",
    "tested_system": "Plasmodium berghei",
    "unit_label": "%",
    "INHIBITION": 13.3
  }
]
